The measurements presented in this section are drawn from PubChem BioAssay AID485364.

Biological target: Schistosoma mansoni thioredoxin glutathione reductase (TGR)
Test: qHTS Assay for the Inhibitors of Schistosoma Mansoni Peroxiredoxins; further: nearly all actives have a fitted effect of over 60% in size
Conditions: purified TGR, DTNB reduction, TNB absorbance 405 nm; series mostly up to 114 µM
The whole screen tested about 360,000 compounds, of which about 11,000 (3.1%) were called active. About 4% were inconclusive and are not listed. The call rests on the fitted dose curve; in most records, active means well fitted inhibition curve with a large enough effect; inconclusive means small, poorly fitted or top-dose-only effect; inactive means no such curve, though single readings can be large or run the other way. The full list was thinned out, with actives kept by preference.
Parameter call: string, one of true for active, false for inactive

> print(dat)
                                   compound  classification
1  O=Cc1c(N2CCN(c3cccc(Cl)c3)CC2)nc2ccccn2c1=O           false

Problem: # outcome recorded in this test, key = COc1cccc(C(c2c(O)cc(C)n(Cc3ccco3)c2=O)N2CCN(c3ccccc3)CC2)c1 (configuration not stated)
Solution: true

Problem: For this compound, state the assay outcome: CN(c1ccccc1)S(=O)(=O)c1ccc(Cl)c(C(=O)OCC(=O)N2CCOCC2)c1
Solution: false

Problem: What is the recorded call for this compound in the test? COc1ccc(-c2cc(C(=O)Nc3sc4c(c3C(N)=O)CCCC4)no2)cc1
Solution: false
